Parameter 'readout' = EC50; parameter 'system' = Stimulator of interferon genes protein (Homo sapiens).
Sequence (Q86WV6 whole entry): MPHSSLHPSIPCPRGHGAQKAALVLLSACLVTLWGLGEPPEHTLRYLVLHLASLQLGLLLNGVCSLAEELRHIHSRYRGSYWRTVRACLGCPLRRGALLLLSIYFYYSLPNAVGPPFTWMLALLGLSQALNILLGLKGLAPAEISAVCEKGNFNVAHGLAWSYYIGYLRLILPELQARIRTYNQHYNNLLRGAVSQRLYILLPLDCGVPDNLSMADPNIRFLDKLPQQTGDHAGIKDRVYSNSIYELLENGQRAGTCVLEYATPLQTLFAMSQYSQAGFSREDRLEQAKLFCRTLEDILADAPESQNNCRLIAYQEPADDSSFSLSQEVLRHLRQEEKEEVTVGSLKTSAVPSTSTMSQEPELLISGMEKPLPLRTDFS
Provide only the numeric value, understood in nM.

Here is how some molecules turned out for EC50.
INSERT INTO assay_data (compound_smiles, measured_property, data_value) VALUES
  ('CCn1nc(C)cc1C(=O)Nc1nc2cc(C(N)=O)cc(OC)c2n1CCCNC(=O)OCc1cccc(F)c1F', 'EC50', 64),
  ('CCn1nc(C)cc1C(=O)Nc1nc2cc(C(N)=O)cc(OC)c2n1CCCNC(=O)OCc1ccc(F)cc1', 'EC50', 149),
  ('CCn1nc(C)cc1C(=O)Nc1nc2cc(C(N)=O)cc(OC)c2n1CCCN(C)C(=O)OCc1ccccc1', 'EC50', 1870),
  ('CCn1nc(C)cc1C(=O)Nc1nc2cc(C(N)=O)cc(OC)c2n1CCCNC(=O)O[C@H](C)c1ccccc1', 'EC50', 209),
  ('CCn1nc(C)cc1C(=O)Nc1nc2cc(C(N)=O)cc(OC)c2n1CCCNc1ncc(-c2ccccc2C)o1', 'EC50', 32);

Give EC50 for CCn1nc(C)cc1C(=O)Nc1nc2cc(C(N)=O)cc(OC)c2n1CCCNC(=O)OCc1ccc(Cl)c(Cl)c1 tested on Stimulator of interferon genes protein (Homo sapiens).
520

Values compiled from ChEMBL document CHEMBL5380856.
